Provenance of the data: patent US12552812B2

experiment: in vitro; type: in vitro ADME; details: SD; rat (R) plasma, 2 μM, 37° C., 4 hours; read-out: Plasma protein binding (PPB) unbound (%)
quantity kind: fraction unbound
Please reply with the value in numeric form only.

(Q) Give recorded fraction unbound. "O=C1c2c(O)c(=O)ccn2N([C@H]2c3ccc(F)c(F)c3C[Se]c3cccnc32)[C@@H]2COCCN12"
(A) 0.313

----------
experiment: in vivo; set-up: species or system male SD rats; conditions: male, SD, iv, 1 mg/kg, rat, 1 mpk
quantity kind: AUC(0-t) (µM·h)
Write the value in µM·h as a bare number.

(Q) Give recorded AUC(0-t). O=C1c2c(O)c(=O)ccn2N([C@H]2c3ccc(F)c(F)c3C[Se]c3cccnc32)[C@@H]2COCCN12 [Compound 3]
(A) 0.171

----------
experiment: in vitro; type: in vitro ADME, CD-1 mouse; conditions: CD-1; mouse (M) plasma, 2 μM, 37° C., 4 hours; read-out: Plasma protein binding (PPB) unbound (%)
quantity kind: fraction unbound
Please reply with the value in numeric form only.

(Q) Give recorded fraction unbound. "O=C1c2c(O)c(=O)ccn2N([C@H]2c3ccc(F)c(F)c3C[Se]c3cccnc32)[C@@H]2COCCN12"
(A) 0.137

----------
test: in vitro; type: in vitro ADME; settings: crab-eating macaque (C) plasma, 2 μM, 37° C., 4 hours; read-out: Plasma protein binding (PPB) unbound (%)
quantity kind: fraction unbound

(Q) Give recorded fraction unbound. O=C1c2c(O)c(=O)ccn2N([C@H]2c3ccc(F)c(F)c3C[Se]c3cccnc32)[C@@H]2COCCN12 [Compound 3]
(A) 0.316

----------
experiment: in vivo; design: species or system male beagle dogs; details: male, iv, 1 mg/kg, beagle dog, 1 mpk
quantity kind: clearance

(Q) Give recorded clearance. "O=C1c2c(O)c(=O)ccn2N([C@H]2c3ccc(F)c(F)c3C[Se]c3cccnc32)[C@@H]2COCCN12"
(A) 36.8 mL/min/kg

----------
test: in vivo; parameters: species or system male beagle dogs; conditions: male, iv, 1 mg/kg, beagle dog, 1 mpk
quantity kind: AUC(0-t) (µM·h)
Write the value in µM·h as a bare number.

(Q) Give recorded AUC(0-t). O=C1c2c(O)c(=O)ccn2N([C@H]2c3ccc(F)c(F)c3C[Se]c3cccnc32)[C@@H]2COCCN12 [Compound 3]
(A) 0.83

----------
test: in vivo; parameters: species or system male SD rats; conditions: male, SD, iv, 1 mg/kg, rat, 1 mpk
quantity kind: half-life
Quick note: unit goes after the number.

(Q) Give recorded half-life. O=C1c2c(O)c(=O)ccn2N([C@H]2c3ccc(F)c(F)c3C[Se]c3cccnc32)[C@@H]2COCCN12 [Compound 3]
(A) 1.7 h
